Reference source: the supplement of paper PMC7366291

system: Danio rerio Tg(wt1b:EGFP) embryo, pronephros; experiment: pronephric angle neck segment to proximal convoluted tubule (mean of left and right), fold change vs DMSO control; higher = larger pronephric angle; conditions: 25 µM; exposure: 24-48 hpf
Structures can show the parent of a compound that is named as a salt.
Measurement Kind: pronephric angle neck segment
Hey, just send me the number, nothing else.

{"Compound": "N=C(N)NC(=O)Cc1c(Cl)cccc1Cl [Guanfacine hydrochloride]", "Target": "Danio rerio Tg(wt1b:EGFP) embryo, pronephros", "pronephric angle neck segment": 0.978}
{"Compound": "CN1C2CCCC1CC(NC(=O)c1nn(C)c3ccccc13)C2 (centres undefined) [Granisetron]", "Target": "Danio rerio Tg(wt1b:EGFP) embryo, pronephros", "pronephric angle neck segment": 1.04}
{"Compound": "CCN1C(=O)NC(c2ccccc2)C1=O (centres undefined) [Ethotoin]", "Target": "Danio rerio Tg(wt1b:EGFP) embryo, pronephros", "pronephric angle neck segment": 0.942}
{"Compound": "CNCCC(Oc1ccccc1OC)c1ccccc1 (centres undefined) [Nisoxetine hydrochloride]", "Target": "Danio rerio Tg(wt1b:EGFP) embryo, pronephros", "pronephric angle neck segment": 1.06}
{"Compound": "CCCCOc1ccc(C(=O)CCN2CCCCC2)cc1 [Dyclonine hydrochloride]", "Target": "Danio rerio Tg(wt1b:EGFP) embryo, pronephros", "pronephric angle neck segment": 1}

Next:
Request: Test system Danio rerio Tg(wt1b:EGFP) embryo, pronephros; read-out pronephric angle neck segment; what value for CC[C@H](C)C(=O)O[C@H]1C[C@@H](C)C=C2C=C[C@H](C)[C@H](CC[C@@H]3C[C@@H](O)CC(=O)O3)[C@H]21 [Lovastatin] ?
Response: 1.54

---

system: Danio rerio Tg(wt1b:EGFP) embryo, pronephros; test: glomerular separation, fold change vs DMSO control; higher = glomeruli further apart (abnormal); conditions: 25 µM; exposure: 24-48 hpf
Counter-ions that a name gives are not always drawn.
Measurement Kind: glomerular separation
Hey, just send me the number, nothing else.

Below, 6 compounds whose answers are already recorded.
{"Compound": "CN(C)CCN1C(=O)c2ccccc2N(C)c2ccccc21 [Dibenzepine hydrochloride]", "glomerular separation": 1.21}
{"Compound": "O=C(O)CCC(=O)c1ccc(-c2ccccc2)cc1 [Fenbufen]", "glomerular separation": 6.73}
{"Compound": "COc1cc2nc(N3CCN(C(=O)C4CCCO4)CC3)nc(N)c2cc1OC (stereo not drawn) [Terazosin hydrochloride]", "glomerular separation": 0.764}
{"Compound": "N[C@@H](Cc1ccc(O)c(O)c1)C(=O)O [Levodopa]", "glomerular separation": 1.02}
{"Compound": "Cc1cccc(Nc2ccccc2C(=O)O)c1C [Mefenamic acid]", "glomerular separation": 5.08}
{"Compound": "C[C@H]1C[C@@H]2[C@H]([C@@H](O)C[C@@]3(C)[C@H]2CC[C@]3(O)C(=O)CO)[C@@]2(C)C=CC(=O)C=C12 [Methylprednisolone, 6-alpha]", "glomerular separation": 1.11}

Request: What does the record list as glomerular separation for N=C(N)N1CCc2ccccc2C1 [Debrisoquin sulfate] ?
Response: 1.02

Request: Another compound to look at: CC1(C)O[C@@H]2C[C@H]3[C@@H]4C[C@H](F)C5=CC(=O)C=C[C@]5(C)[C@H]4[C@@H](O)C[C@]3(C)[C@]2(C(=O)CO)O1 [Flunisolide]
Response: 1.26

---

test system: Danio rerio Tg(wt1b:EGFP) embryo, pronephros; assay: fraction of imaged embryos annotated as normal kidney; higher = less nephrotoxic; extreme values may be limits of the assay; settings: 25 µM; exposure: 24-48 hpf
Measurement Kind: fraction of imaged embryos annotated as normal kidney
Hey, just send me the number, nothing else.

Request: What does the record list as fraction of imaged embryos annotated as normal kidney for Cc1cc(=O)n(-c2ccccc2)n1C [Antipyrine] ?
Response: 0.667

Request: Another molecule to look at: `C[C@@H](O)[C@H]1C(=O)N2C(C(=O)O)=C(SCCNC=N)C[C@H]12`
Response: 1

Request: Another molecule to look at: CCOC(=O)C1=C(C)NC(C)=C(C(=O)OC)C1c1cccc([N+](=O)[O-])c1 (stereo not given)
Response: 0

Request: Another molecule to look at: `CC(=O)CCCCn1c(=O)c2c(ncn2C)n(C)c1=O`
Response: 0.583

Request: Another molecule to look at: `CC(=O)[C@H]1CC[C@H]2[C@@H]3C=CC4=CC(=O)CC[C@@]4(C)[C@@H]3CC[C@]12C`
Response: 0.833

---

tested on: Danio rerio Tg(wt1b:EGFP) embryo, pronephros; assay: glomerular width (mean of left and right), fold change vs DMSO control; higher = wider glomerulus; settings: 25 µM; exposure: 24-48 hpf
Measurement Kind: glomerular width
Hey, just send me the number, nothing else.

Below, 3 molecules whose answers are already recorded.
{"Molecule": "C=CC1=C(C(=O)O)N2C(=O)[C@@H](NC(=O)/C(=N\\OCC(=O)O)c3csc(N)n3)[C@H]2SC1 [Cefixime]", "Quantitative Result": 1}
{"Molecule": "Nc1ccc(S(=O)(=O)Nc2ccc(Cl)nn2)cc1 [Sulfachloropyridazine]", "Quantitative Result": 0.973}
{"Molecule": "CC[C@]12CCCN3CCc4c(n(c5ccccc45)[C@@](O)(C(=O)OC)C1)[C@@H]32 [Vincamine]", "Quantitative Result": 0.965}

Request: What does the record list as glomerular width for COC(=O)Nc1nc2cc(C(=O)c3cccs3)ccc2[nH]1 [Nocodazole] ?
Response: 0.523

Request: Another molecule to look at: N=C(N)N/N=C/c1c(Cl)cccc1Cl [Guanabenz acetate]
Response: 1.07

Request: Another molecule to look at: C[C@]12C=CC(=O)C=C1CC[C@@H]1[C@@H]2[C@@H](O)C[C@@]2(C)[C@H]1CC[C@]2(O)C(=O)CO [Prednisolone]
Response: 1.22

---

system: Danio rerio Tg(wt1b:EGFP) embryo, pronephros; assay: fraction of imaged embryos annotated as normal kidney; higher = less nephrotoxic; extreme values may be limits of the assay; conditions: 25 µM; exposure: 24-48 hpf
Structures can show the parent of a compound that is named as a salt.
Label rule, in plain words: fraction of imaged embryos annotated as normal kidney of 0.8 and up is True, under 0.8 is False.

Previously resolved entries follow.
{"Molecule": "CCC1(c2ccccc2)C(=O)NCNC1=O", "Class Assignment": "True"}
{"Molecule": "CC(=O)OCC(=O)[C@@]12OC(C)(C)O[C@@H]1C[C@H]1[C@@H]3C[C@H](F)C4=CC(=O)C=C[C@]4(C)[C@@]3(F)[C@@H](O)C[C@@]12C [Fluocinonide]", "Class Assignment": "False"}
{"Molecule": "O=C1c2ccccc2S(=O)(=O)N1CCCCN1CCN(c2ncccn2)CC1", "Class Assignment": "True"}
{"Molecule": "N=C(N)NC(=N)NCCc1ccccc1 [Phenformin hydrochloride]", "Class Assignment": "True"}
{"Molecule": "CC(CCc1ccc(O)cc1)NCCc1ccc(O)c(O)c1 (configuration not stated) [Dobutamine hydrochloride]", "Class Assignment": "True"}
{"Molecule": "CC1(C)NC(=O)N(c2ccc([N+](=O)[O-])c(C(F)(F)F)c2)C1=O [Nilutamide]", "Class Assignment": "False"}

Request: Would you say N=C(N)NCc1cccc(I)c1 [Iobenguane sulfate] shows fraction of imaged embryos annotated as normal kidney at minimum 0.8?
Response: True

Request: Another molecule to look at: O=C(c1ccc(F)cc1)C1CCN(CCn2c(=O)[nH]c3ccccc3c2=O)CC1 [Ketanserin tartrate hydrate]
Response: True

Request: Another molecule to look at: CCN1CCCC(OC(=O)C(c2ccccc2)c2ccccc2)C1 (configuration not stated) [Piperidolate hydrochloride]
Response: False

Request: Another molecule to look at: `CC(=O)Oc1cccc2c1C(=O)c1c(OC(C)=O)cc(C(=O)O)cc1C2=O`
Response: True

Request: Another molecule to look at: C[N+]1(C)CCC(=C(c2ccccc2)c2ccccc2)CC1 [Diphemanil methylsulfate]
Response: False

Request: Another molecule to look at: CC(=O)N(CC(O)CO)c1c(I)c(C(=O)NCC(O)CO)c(I)c(C(=O)NCC(O)CO)c1I (configuration not stated) [Iohexol]
Response: False

Request: Another molecule to look at: CCOC(=O)O[C@]1(C(=O)COC(=O)CC)CC[C@H]2[C@@H]3CCC4=CC(=O)C=C[C@]4(C)[C@H]3[C@@H](O)C[C@@]21C [Prednicarbate]
Response: False

Request: Another molecule to look at: Nc1nc(NC2CC2)c2ncn([C@H]3C=C[C@@H](CO)C3)c2n1 [Abacavir Sulfate]
Response: True

Request: Another molecule to look at: `CS(=O)(=O)c1ccc([C@@H](O)[C@@H](CF)NC(=O)C(Cl)Cl)cc1`
Response: True

Request: Another molecule to look at: COc1ccccc1OCC(O)COC(N)=O (configuration not stated)
Response: True

---

system: Danio rerio Tg(wt1b:EGFP) embryo, pronephros; experiment: glomerular width (mean of left and right), fold change vs DMSO control; higher = wider glomerulus; details: 25 µM; exposure: 24-48 hpf
Counter-ions that a name gives are not always drawn.
// glomerular width lookup, one value per entry
Hey, just send me the number, nothing else.

{"Molecule": "Cc1nc2ccccn2c(=O)c1CCN1CCC(C(=O)c2ccc(F)cc2)CC1 [Pirenperone]", "Measurement Kind": "glomerular width", "Quantitative Result": 1.05}
{"Molecule": "O=C(Oc1cccc2cccnc12)c1ccccc1 [Benzoxiquine]", "Measurement Kind": "glomerular width", "Quantitative Result": 0.56}
{"Molecule": "CCOC(=O)C1=C(C)NC(C)=C(C(=O)OCC)C1c1ccccc1/C=C/C(=O)OC(C)(C)C [Lacidipine]", "Measurement Kind": "glomerular width", "Quantitative Result": 0.671}
{"Molecule": "CC(CN1c2ccccc2Sc2ccccc21)N(C)C (stereo not drawn) [Promethazine hydrochloride]", "Measurement Kind": "glomerular width", "Quantitative Result": 0.998}
{"Molecule": "CC(Oc1c(Cl)cccc1Cl)C1=NCCN1 (stereo not drawn) [Lofexidine]", "Measurement Kind": "glomerular width", "Quantitative Result": 0.992}

Request: Test system Danio rerio Tg(wt1b:EGFP) embryo, pronephros; read-out glomerular width; what value for Cc1c(NC(C)C)c(=O)n(-c2ccccc2)n1C [Isopyrin hydrochloride] ?
Response: 1.04

Request: Another molecule to look at: CC1(C)O[C@@H]2C[C@H]3[C@@H]4CCC5=CC(=O)C=C[C@]5(C)[C@H]4[C@@H](O)C[C@]3(C)[C@]2(C(=O)CO)O1 [Desonide]
Response: 1.33

Request: Another molecule to look at: CCCCC(=O)N(Cc1ccc(-c2ccccc2-c2nnn[nH]2)cc1)[C@H](C(=O)O)C(C)C [Valsartan]
Response: 1.09
